Below is a list of entries, each paired with its recorded inhibition value.
experiment: M. tuberculosis growth inhibition, HTS (AID 449762);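 also: bacterial growth assessed after seven days of incubation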; settings: M. tuberculosis H37Rv growth inhibition, 7H9 media; at 25 µM; stronger effect = higher value
Out of some 330,000 compounds screened, about 1,900 (0.58%) were called active. Another 4% or so got no clear call; they are omitted. The list is a sample of the results. Entries with a potency or affinity are not part of this list.

{"molecule": "O=C(Nc1ccc([N+](=O)[O-])cc1)c1cccc(S(=O)(=O)Nc2ccccn2)c1", "inhibition, %": -2.42}
{"molecule": "C=CCOc1ccc(C2CC(C)=NN2c2ccccc2)cc1 (stereo not given)", "inhibition, %": 3.55}
{"molecule": "COc1ccc(N2CCN(C(=O)c3sc4ncn(CC(=O)N5CCCCC5C)c(=O)c4c3C)CC2)cc1 (stereo not given)", "inhibition, %": -4.52}
{"molecule": "COCC(C)n1c(SCC(=O)Nc2oc(C)c3c(C)n[nH]c(=O)c23)nc2ccccc2c1=O (stereo not given)", "inhibition, %": 1.83}
{"molecule": "COc1ccc(OCCN(C)CC(=O)Nc2c(C)cccc2C)cc1", "inhibition, %": -3.93}
{"molecule": "CC(C)C(NC(=O)OCc1ccccc1)C(=O)OCC(=O)NCc1ccco1 (stereo not given)", "inhibition, %": 8.7}
{"molecule": "CCOC(=O)CSc1nc2ccccc2c(=O)n1CC", "inhibition, %": -0.95}
{"molecule": "O=C(NCC1CCCO1)C(=O)N/N=C/c1c(F)cccc1Cl (stereo not given)", "inhibition, %": 5.59}
{"molecule": "CC1CCCC(NC(=O)COC(=O)c2ccc(S(=O)(=O)N3CCOCC3)cc2)C1C (stereo not given)", "inhibition, %": -1.74}
{"molecule": "O=[N+]([O-])c1ccc(C(=S)N2CCN(Cc3ccccc3)CC2)cc1", "inhibition, %": 6.67}
